The values you see were collected from patent US5290347A.

Assay: Solubility of the salt-forming type dyes (Tables 1-3)
Assay type: physicochemical
Settings: solvent: glycol ether
readout.name: Solubility, Glycol ether (g/100 ml)

compound	units.symbol	measured.value
Nc1cc2c(O)c(N=Nc3ccc(N=Nc4cccc(P(=O)(O)O)c4)c4ccc(S(=O)(=O)O)cc34)c(S(=O)(=O)O)cc2cc1S(=O)(=O)O [Black No. 5]	g/100 ml	30
Nc1ccc2cc(S(=O)(=O)O)c(N=Nc3ccc(N=Nc4cccc(P(=O)(O)O)c4)c4ccc(S(=O)(=O)O)cc34)c(O)c2c1 [Black No. 3]	g/100 ml	30
Nc1cc(N=Nc2cccc(P(=O)(O)O)c2)c2c(O)cc(S(=O)(=O)O)cc2c1N=Nc1cccc(P(=O)(O)O)c1 [Red No. 4]	g/100 ml	30
CC(=O)Nc1cc(S(=O)(=O)O)cc2cc(S(=O)(=O)O)c(N=Nc3cccc(P(=O)(O)O)c3)c(O)c12 [Red No. 2]	g/100 ml	25
COc1cc(N=Nc2cccc(P(=O)(O)O)c2)c(C)cc1N=Nc1c(S(=O)(=O)O)cc2cc(S(=O)(=O)O)cc(N)c2c1O [Blue No. 3]	g/100 ml	30
O=P(O)(O)c1cccc(N=Nc2c(S(=O)(=O)O)cc3cc(Nc4ccc5c(O)c(N=Nc6cccc(P(=O)(O)O)c6)c(S(=O)(=O)O)cc5c4)ccc3c2O)c1 [Red No. 3]	g/100 ml	25
